Property: MIC; scope: individual compounds
# System: self-luminescent tuberculosis
# protocol: microbe, parasite or virus in culture
# Assay type: cell-based
# condition-details: Mycobacterium tuberculosis, 72 h; read-out: MIClux

Reported MIC ( Cc1ccn2nc(C)c(C(=O)NCc3ccc(-c4ccc(OC(F)(F)F)cc4)s3)c2c1 [TJ830132] ) = < 1 µg/mL

The reported value for Cc1ccn2nc(C)c(C(=O)NCc3cn(-c4ccc(OC(F)(F)F)cc4)nn3)c2c1 [TJ830003] in terms of MIC is > 10 µg/mL

MIC recorded for this compound, Cc1ccn2nc(C)c(C(=O)NCc3ccc(-c4ccc(OC(F)(F)F)cc4)nc3)c2c1 [TJ830025] , is < 1 µg/mL

Reported MIC for CCCc1nn2ccc(Cl)cc2c1C(=O)NCc1ccc(N2CCC(c3ccc(OC(F)(F)F)cc3)CC2)cc1 [TJ830134] was < 1 µg/mL

According to the records, this compound Cc1ccn2nc(C)c(C(=O)NCc3ccc(F)cc3)c2c1 [TJ4570006] displays MIC of 1 to 10 µg/mL

Short answer for Cc1nn2c(C)cccc2c1C(=O)NCc1ccc(N2CCC(c3ccc(OC(F)(F)F)cc3)CC2)cc1 [TJ064851] : MIC was 1 to 10 µg/mL

Sample Cc1ccn2nc(C)c(C(=O)NCc3ccc(N4CCN(c5ccc(F)cc5)CC4)cc3)c2c1 [TJ830152] ; MIC observed: < 1 µg/mL

Lab note: CCc1nn2ccc(Cl)cc2c1C(=O)N(C)Cc1ccc(N2CCC(c3ccc(OC(F)(F)F)cc3)CC2)cc1 [TJ064985] gave MIC of 1 to 10 µg/mL

src = patent US10155756B2
